# credit: patent US11981658B2

- Tested target: EGFR Del19/T790M/C797S (Homo sapiens, UniProt P00533, C797S/DEL746-750/T790M)
- Sequence (P00533 with tags, fused parts or gaps DEL746-750/T790M/C797S): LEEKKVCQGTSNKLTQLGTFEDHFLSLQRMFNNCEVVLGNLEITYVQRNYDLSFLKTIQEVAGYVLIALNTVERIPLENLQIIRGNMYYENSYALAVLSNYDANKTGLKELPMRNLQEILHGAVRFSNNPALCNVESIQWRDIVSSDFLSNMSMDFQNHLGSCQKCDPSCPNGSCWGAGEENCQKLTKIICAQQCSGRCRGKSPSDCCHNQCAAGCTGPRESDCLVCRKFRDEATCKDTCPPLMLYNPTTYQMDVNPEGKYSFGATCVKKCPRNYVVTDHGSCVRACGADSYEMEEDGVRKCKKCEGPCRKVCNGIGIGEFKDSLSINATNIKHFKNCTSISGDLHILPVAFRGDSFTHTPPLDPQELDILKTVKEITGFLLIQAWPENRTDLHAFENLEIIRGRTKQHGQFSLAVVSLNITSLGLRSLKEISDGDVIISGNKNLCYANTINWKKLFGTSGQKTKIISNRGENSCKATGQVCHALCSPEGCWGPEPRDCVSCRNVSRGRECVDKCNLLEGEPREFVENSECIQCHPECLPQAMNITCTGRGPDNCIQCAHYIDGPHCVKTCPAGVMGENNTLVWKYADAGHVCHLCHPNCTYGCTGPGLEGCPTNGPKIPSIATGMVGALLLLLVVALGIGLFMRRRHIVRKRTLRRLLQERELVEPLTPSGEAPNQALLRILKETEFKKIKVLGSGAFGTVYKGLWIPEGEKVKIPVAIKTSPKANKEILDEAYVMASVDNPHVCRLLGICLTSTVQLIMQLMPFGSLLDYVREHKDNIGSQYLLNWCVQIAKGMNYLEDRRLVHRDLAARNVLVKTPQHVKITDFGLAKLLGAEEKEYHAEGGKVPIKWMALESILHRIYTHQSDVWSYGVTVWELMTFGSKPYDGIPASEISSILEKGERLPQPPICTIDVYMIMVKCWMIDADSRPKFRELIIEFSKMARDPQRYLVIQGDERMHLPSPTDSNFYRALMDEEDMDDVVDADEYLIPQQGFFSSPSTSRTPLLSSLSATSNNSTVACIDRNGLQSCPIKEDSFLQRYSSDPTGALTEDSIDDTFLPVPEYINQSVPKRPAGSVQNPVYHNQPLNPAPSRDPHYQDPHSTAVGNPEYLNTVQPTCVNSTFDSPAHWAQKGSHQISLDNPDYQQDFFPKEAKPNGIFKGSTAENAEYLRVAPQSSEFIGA
- Measurement description: Biochemical EGFR kinase inhibition assay (Lance Ultra TR-FRET), triple mutant del19/T790M/C797S
- Assay setup: IC50 Del19/T790M/C797S (nM), 100 μM ATP
Measured IC50, listed per entry.
All answers are understood in nM, so give the number only.

Worked cases, IC50 given:
INSERT INTO measurements (compound, observed_value) VALUES
  ('O=C(N1CCC(C#Cc2cnc(Nc3ccnc(-c4cnn(S(=O)(=O)C5CC5)c4)n3)cc2NCC2CCC(O)CC2)C1)C(F)(F)F (stereo not shown) [Example 409]', 4.3),
  ('O=S(=O)(C1CC1)n1cc(-c2nccc(Nc3cc(N4CCC(O)CC4)c(C#Cc4csc(CF)n4)cn3)n2)cn1 [Example 212]', 1.5),
  ('CN(C)Cc1ccc(C#Cc2cnc(Nc3ccnc(-c4cnn(S(=O)(=O)C5CC5)c4)n3)cc2N2CCC(C)(CO)CC2)cn1 [Example 278]', 0.6),
  ('COC1CCN(c2cc(Nc3ccnc(-c4cnn(S(=O)(=O)C5CC5)c4)n3)ncc2C#Cc2cnn(C)c2)CC1 [Example 15]', 2.6);

Bench note: what IC50 did Cn1cc(C#Cc2cnc(Nc3ccnc(-c4cnn(S(=O)(=O)C5CC5)c4)n3)cc2N[C@@H]2CCC[C@H](O)C2)cn1 [Example 45] show?
0.9

Would you kindly repeat that for C[C@]1(O)CCCN(c2cc(Nc3ccnc(-c4cnn(S(=O)(=O)C5CC5)c4)n3)ncc2C#Cc2cnn(C(F)(F)F)c2)C1 [Example 448] ?
1.7

Would you kindly repeat that for O=S(=O)(C1CC1)n1cc(-c2nccc(Nc3cc(N4CCC5(CCO5)CC4)c(C#Cc4cccnc4)cn3)n2)cn1 [Example 283] ?
9.5

Would you kindly repeat that for CS(=O)(=O)N1CCC(C#Cc2cnc(Nc3ccnc(-c4cnn(S(=O)(=O)C5CC5)c4)n3)cc2NC[C@H]2CC[C@H](CO)CC2)CC1 [Example 388] ?
6.6

Would you kindly repeat that for CC1(CO)CCN(c2cc(Nc3ccnc(-c4cnn(S(=O)(=O)C5CC5)c4)n3)ncc2C#Cc2cccnc2)CC1 [Example 260] ?
0.4

Would you kindly repeat that for CC1(CO)CCN(c2cc(Nc3ccnc(-c4cnn(S(=O)(=O)C5CC5)c4)n3)ncc2C#CC2CCOCC2)CC1 [Example 179] ?
0.5

Would you kindly repeat that for Cn1cc(C#Cc2cnc(Nc3ccnc(-c4cnn(S(=O)(=O)C5CC5)c4)n3)cc2N2CCC(CO)CC2)cn1 [Example 29] ?
1.8

Would you kindly repeat that for Cn1cc(C#Cc2cnc(Nc3ccnc(-c4cnn(S(=O)(=O)C5CC5)c4)n3)cc2N2CCC(CCO)CC2)c(C(F)(F)F)n1 [Example 91] ?
5.6

Would you kindly repeat that for CN1CCC2(CC1)CCN(c1cc(Nc3ccnc(-c4cnn(S(=O)(=O)C5CC5)c4)n3)ncc1C#Cc1cnn(CC3CC3)c1)CC2 [Example 320] ?
1

----------
- Tested target: EGFR L858R/C797S (Homo sapiens, UniProt P00533, C797S/L858R)
- Sequence (P00533 25-1210 C797S/L858R): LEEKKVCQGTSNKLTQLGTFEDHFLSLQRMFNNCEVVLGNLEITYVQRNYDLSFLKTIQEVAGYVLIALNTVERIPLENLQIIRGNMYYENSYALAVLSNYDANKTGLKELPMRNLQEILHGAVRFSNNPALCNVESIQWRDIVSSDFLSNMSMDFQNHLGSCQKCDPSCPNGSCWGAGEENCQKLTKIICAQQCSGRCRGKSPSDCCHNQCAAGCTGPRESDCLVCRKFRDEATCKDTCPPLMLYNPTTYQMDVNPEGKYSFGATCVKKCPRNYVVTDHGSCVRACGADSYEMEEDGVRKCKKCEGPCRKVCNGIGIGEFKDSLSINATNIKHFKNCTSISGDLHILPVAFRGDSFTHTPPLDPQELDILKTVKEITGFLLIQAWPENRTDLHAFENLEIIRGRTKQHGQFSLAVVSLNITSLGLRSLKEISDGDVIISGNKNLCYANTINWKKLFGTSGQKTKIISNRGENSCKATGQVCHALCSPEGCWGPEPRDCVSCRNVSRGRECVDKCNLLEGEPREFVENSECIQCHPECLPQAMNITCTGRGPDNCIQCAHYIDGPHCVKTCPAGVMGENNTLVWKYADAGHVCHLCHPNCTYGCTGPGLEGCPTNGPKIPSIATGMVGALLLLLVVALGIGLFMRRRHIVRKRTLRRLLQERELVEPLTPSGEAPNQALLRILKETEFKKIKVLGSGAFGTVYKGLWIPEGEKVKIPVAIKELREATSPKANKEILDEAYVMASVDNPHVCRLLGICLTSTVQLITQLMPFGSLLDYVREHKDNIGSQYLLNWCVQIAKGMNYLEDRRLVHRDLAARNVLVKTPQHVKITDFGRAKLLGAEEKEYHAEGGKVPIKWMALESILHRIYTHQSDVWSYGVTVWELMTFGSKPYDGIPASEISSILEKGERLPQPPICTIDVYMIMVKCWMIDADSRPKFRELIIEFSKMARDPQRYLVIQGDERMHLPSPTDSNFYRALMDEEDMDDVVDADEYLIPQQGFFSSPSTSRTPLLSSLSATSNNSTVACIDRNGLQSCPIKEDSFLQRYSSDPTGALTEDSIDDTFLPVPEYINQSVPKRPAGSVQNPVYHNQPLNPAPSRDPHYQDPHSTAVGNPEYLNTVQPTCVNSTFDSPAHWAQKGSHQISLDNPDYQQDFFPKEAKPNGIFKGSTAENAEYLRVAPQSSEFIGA
- Measurement description: Biochemical EGFR kinase inhibition assay (Lance Ultra TR-FRET), double mutant L858R/C797S
- Assay setup: IC50 L858R/C797S (nM), 100 μM ATP
Measured log10(IC50), listed per entry.
Hey, these are logged values: log10 of IC50, nM being the unit before logging.

Worked cases, log10(IC50) given:
INSERT INTO results (compound, observed_value) VALUES
  ('O=S(=O)(C1CC1)n1cc(-c2nccc(Nc3cc(N[C@H]4CC[C@@H](O)CC4)c(C#CC4(O)CCCC4)cn3)n2)cn1', 2.02),
  ('CN(C)CCC1CCCN(c2cc(Nc3ccnc(-c4cnn(S(=O)(=O)C5CC5)c4)n3)ncc2C#Cc2cnn(CCF)c2)C1 (stereo not shown)', 0.88),
  ('CC1(C#Cc2cnc(Nc3ccnc(-c4cnn(S(=O)(=O)C5CC5)c4)n3)cc2N2CCC(C)(CO)CC2)CC1', 1.48),
  ('CN(C)CC1(O)CCN(c2cc(Nc3ccnc(-c4cnn(S(=O)(=O)C5CC5)c4)n3)ncc2C#Cc2cnn(C(F)(F)F)c2)CC1', 2.52),
  ('CC1(C#Cc2cnc(Nc3ccnc(-c4cnn(S(=O)(=O)C5CC5)c4)n3)cc2NC[C@H]2CC[C@H](O)CC2)CC1', 3.28),
  ('Cn1cc(C#Cc2cnc(Nc3ccnc(-c4cnn(S(=O)(=O)C5CC5)c4)n3)cc2N2CCC3(CCNC3)CC2)cn1', 0.95),
  ('Cn1ccc(C#Cc2cnc(Nc3ccnc(-c4cnn(S(=O)(=O)C5CC5)c4)n3)cc2N[C@H]2CC[C@@H](O)CC2)n1', 2.44),
  ('CC1(CO)CCN(c2cc(Nc3ccnc(-c4cnn(S(=O)(=O)C5CC5)c4)n3)ncc2C#CC2(O)CCC2)CC1', 1.89);

Bench note: what log10(IC50) did `CC1(CO)CCN(c2cc(Nc3ccnc(-c4cnn(S(=O)(=O)C5CC5)c4)n3)ncc2C#CC2(O)COC2)CC1` show?
0.93

Would you kindly repeat that for `Cn1cc(C#Cc2cnc(Nc3ccnc(-c4cnn(S(=O)(=O)C5CC5)c4)n3)cc2N2CCC3(CCNCC3)C2)cn1` ?
2.16

Would you kindly repeat that for `O=S(=O)(C1CC1)n1cc(-c2nccc(Nc3cc(NC[C@H]4CC[C@H](CO)CC4)c(C#Cc4cnn(CCF)c4)cn3)n2)cn1` ?
3.11

Would you kindly repeat that for `CC(C)Nc1cc(Nc2ccnc(-c3cnn(S(=O)(=O)C4CC4)c3)n2)ncc1C#CCCCCC(=O)N1CCOCC1` ?
2.20

Would you kindly repeat that for `CC(C)(O)[C@H]1CC[C@@H](Nc2cc(Nc3ccnc(-c4cnn(S(=O)(=O)C5CC5)c4)n3)ncc2C#Cc2ccc(CN3CCOCC3)cc2)CC1` ?
2.79

----------
- Tested target: EGFR Del19/T790M/C797S (Homo sapiens, UniProt P00533, C797S/DEL746-750/T790M)
- Measurement description: Biochemical EGFR kinase inhibition assay (Lance Ultra TR-FRET), triple mutant del19/T790M/C797S
- Assay setup: IC50 Del19/T790M/C797S (nM), 100 μM ATP
Measured IC50, listed per entry.
All answers are understood in nM, so give the number only.

Worked cases, IC50 given:
INSERT INTO assay_data (smiles_text, tested_target, quantity_measured, observed_value) VALUES
  ('CC1(CO)CCN(c2cc(Nc3ccnc(-c4cnn(S(=O)(=O)C5CC5)c4)n3)ncc2C#CCCN2CCOCC2)CC1', 'EGFR Del19/T790M/C797S (Homo sapiens, UniProt P00533, C797S/DEL746-750/T790M)', 'IC50', 1),
  ('Cn1cc(C#Cc2cnc(Nc3ccnc(-c4cnn(S(=O)(=O)C5CC5)c4)n3)cc2N2CCC(OC(F)(F)F)CC2)cn1', 'EGFR Del19/T790M/C797S (Homo sapiens, UniProt P00533, C797S/DEL746-750/T790M)', 'IC50', 13.3);

Now take the following molecule into account.
Bench note: what IC50 did `O=C(c1ccc(C#Cc2cnc(Nc3ccnc(-c4cnn(S(=O)(=O)C5CC5)c4)n3)cc2N2CCC[C@H](O)C2)cc1)N1CCC(O)CC1` show?
0.9

----------
Measured IC50, listed per entry.
- Tested target: EGFR L858R/T790M/C797S (Homo sapiens, UniProt P00533, C797S/L858R/T790M)
- Sequence (P00533 25-1210 T790M/C797S/L858R): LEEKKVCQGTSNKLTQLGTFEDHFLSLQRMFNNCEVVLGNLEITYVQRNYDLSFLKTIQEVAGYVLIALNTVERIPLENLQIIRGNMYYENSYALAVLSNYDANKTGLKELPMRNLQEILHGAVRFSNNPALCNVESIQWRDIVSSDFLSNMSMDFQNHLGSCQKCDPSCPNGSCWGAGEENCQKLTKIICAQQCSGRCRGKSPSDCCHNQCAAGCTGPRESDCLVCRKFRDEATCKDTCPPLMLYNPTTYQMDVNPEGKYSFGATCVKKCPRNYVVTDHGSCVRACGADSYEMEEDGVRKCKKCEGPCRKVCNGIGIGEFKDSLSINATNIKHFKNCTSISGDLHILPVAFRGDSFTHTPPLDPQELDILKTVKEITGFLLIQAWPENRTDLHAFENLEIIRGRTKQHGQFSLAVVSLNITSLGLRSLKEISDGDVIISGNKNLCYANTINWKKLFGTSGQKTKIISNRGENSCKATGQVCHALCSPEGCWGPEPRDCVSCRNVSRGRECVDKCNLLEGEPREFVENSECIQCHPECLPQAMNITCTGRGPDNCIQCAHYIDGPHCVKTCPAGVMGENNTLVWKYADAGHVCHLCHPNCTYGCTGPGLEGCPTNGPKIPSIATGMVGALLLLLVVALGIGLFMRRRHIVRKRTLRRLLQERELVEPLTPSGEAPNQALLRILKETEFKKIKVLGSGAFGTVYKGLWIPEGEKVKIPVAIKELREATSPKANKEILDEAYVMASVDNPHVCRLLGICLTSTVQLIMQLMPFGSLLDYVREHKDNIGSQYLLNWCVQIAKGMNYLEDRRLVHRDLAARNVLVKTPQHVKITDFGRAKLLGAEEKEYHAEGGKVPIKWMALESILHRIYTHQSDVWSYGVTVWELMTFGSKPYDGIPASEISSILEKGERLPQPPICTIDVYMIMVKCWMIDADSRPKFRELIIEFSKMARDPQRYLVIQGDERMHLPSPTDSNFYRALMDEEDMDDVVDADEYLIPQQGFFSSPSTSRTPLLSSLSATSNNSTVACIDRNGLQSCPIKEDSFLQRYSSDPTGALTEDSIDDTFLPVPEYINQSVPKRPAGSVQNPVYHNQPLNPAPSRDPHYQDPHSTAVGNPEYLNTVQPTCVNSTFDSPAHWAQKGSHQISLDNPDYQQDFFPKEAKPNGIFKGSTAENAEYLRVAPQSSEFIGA
- Measurement description: Biochemical EGFR kinase inhibition assay (Lance Ultra TR-FRET), triple mutant L858R/T790M/C797S
- Assay setup: IC50 L858R/T790M/C797S (nM), 100 μM ATP

Worked cases, IC50 given:
INSERT INTO results (molecule, quantity_measured, observed_value) VALUES
  ('CC1(CO)CCN(c2cc(Nc3ccnc(-c4cnn(S(=O)(=O)C5CC5)c4)n3)ncc2C#Cc2cnn(C3COC3)c2)CC1', 'IC50', '1.3 nM'),
  ('O=S(=O)(C1CC1)n1cc(-c2nccc(Nc3cc(N4CCC(CO)CC4)c(C#Cc4cnn(C5CC5(F)F)c4)cn3)n2)cn1 (stereo not drawn)', 'IC50', '2.5 nM');

Now take the following molecule into account.
Bench note: what IC50 did O=S(=O)(C1CC1)n1cc(-c2nccc(Nc3cc(NC4CCC(O)CC4)c(C#Cc4cnn(C5CC5(F)F)c4)cn3)n2)cn1 (stereo not drawn) show?
3.5 nM

----------
Measured IC50, listed per entry.
- Tested target: EGFR Del19/C797S (Homo sapiens, UniProt P00533, C797S/DEL746-750)
- Sequence (P00533 with tags, fused parts or gaps DEL746-750/C797S): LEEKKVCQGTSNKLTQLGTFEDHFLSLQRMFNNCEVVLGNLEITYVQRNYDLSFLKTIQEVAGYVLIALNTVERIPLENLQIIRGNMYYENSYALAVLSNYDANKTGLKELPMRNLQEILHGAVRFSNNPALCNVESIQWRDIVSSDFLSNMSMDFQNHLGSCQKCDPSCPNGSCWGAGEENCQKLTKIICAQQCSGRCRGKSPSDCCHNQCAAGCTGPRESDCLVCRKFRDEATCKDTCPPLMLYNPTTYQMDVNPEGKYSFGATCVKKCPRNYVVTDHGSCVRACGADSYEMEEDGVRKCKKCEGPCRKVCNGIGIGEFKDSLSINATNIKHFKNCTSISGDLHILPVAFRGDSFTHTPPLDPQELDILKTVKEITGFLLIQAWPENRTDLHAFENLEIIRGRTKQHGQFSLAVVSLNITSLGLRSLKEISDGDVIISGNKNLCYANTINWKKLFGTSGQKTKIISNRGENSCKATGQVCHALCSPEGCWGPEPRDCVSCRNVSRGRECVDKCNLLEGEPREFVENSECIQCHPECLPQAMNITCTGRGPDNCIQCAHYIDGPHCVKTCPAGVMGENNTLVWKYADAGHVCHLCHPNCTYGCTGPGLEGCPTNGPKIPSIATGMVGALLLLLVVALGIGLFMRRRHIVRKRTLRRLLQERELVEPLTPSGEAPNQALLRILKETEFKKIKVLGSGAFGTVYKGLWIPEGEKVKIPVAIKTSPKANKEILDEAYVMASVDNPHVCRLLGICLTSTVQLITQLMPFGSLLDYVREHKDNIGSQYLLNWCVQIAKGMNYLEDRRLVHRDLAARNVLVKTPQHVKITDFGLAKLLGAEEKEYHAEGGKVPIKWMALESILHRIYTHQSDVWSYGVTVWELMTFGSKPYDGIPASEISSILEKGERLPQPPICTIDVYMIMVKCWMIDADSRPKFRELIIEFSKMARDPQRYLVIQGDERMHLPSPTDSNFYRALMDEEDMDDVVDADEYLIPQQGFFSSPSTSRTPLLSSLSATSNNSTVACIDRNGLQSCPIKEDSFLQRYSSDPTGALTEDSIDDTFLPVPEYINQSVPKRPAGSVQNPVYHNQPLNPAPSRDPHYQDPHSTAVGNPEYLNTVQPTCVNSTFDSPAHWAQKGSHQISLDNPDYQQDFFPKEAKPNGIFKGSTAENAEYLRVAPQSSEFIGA
- Measurement description: Biochemical EGFR kinase inhibition assay (Lance Ultra TR-FRET), double mutant del19/C797S
- Assay setup: IC50 Del19/C797S (nM), 100 μM ATP
All answers are understood in nM, so give the number only.

Worked cases, IC50 given:
INSERT INTO results (compound, observed_value) VALUES
  ('CC(O)CC#Cc1cnc(Nc2ccnc(-c3cnn(S(=O)(=O)C4CC4)c3)n2)cc1N1CCC(C)(CO)CC1 (stereo not drawn) [Example 287]', 1.6),
  ('Cn1cnc(C#Cc2cnc(Nc3ccnc(-c4cnn(S(=O)(=O)C5CC5)c4)n3)cc2N2CCC(O)CC2)c1 [Example 213]', 8.8);

Give IC50 (EGFR Del19/C797S (Homo sapiens, UniProt P00533, C797S/DEL746-750)) of the following compound: CC1(O)CCN(c2cc(Nc3ccnc(-c4cnn(S(=O)(=O)C5CC5)c4)n3)ncc2C#CC2CCN(C(=O)C(F)(F)F)C2)CC1 (stereo not drawn) [Example 410]
3.1

Would you kindly repeat that for O=S(=O)(C1CC1)n1cc(-c2nccc(Nc3cc(N[C@H]4CC[C@@H](CO)CC4)c(C#CC4C[C@@H]5CC[C@@H]4O5)cn3)n2)cn1 (stereo partly drawn) [Example 422] ?
2.6

Would you kindly repeat that for CN(C)CC1(C)CCN(c2cc(Nc3ccnc(-c4cnn(S(=O)(=O)C5CC5)c4)n3)ncc2C#Cc2cnn(C3CC3)c2)CC1 [Example 299] ?
1

Would you kindly repeat that for CN(C)CCNC1CCN(c2cc(Nc3ccnc(-c4cnn(S(=O)(=O)C5CC5)c4)n3)ncc2C#Cc2cnn(C(F)(F)F)c2)CC1 [Example 143] ?
1.9
